test: HepG2 cytotoxicity, primary screen, cytotoxicity control for P. falciparum antimalarial project, cell-based, ATP luminescence (AID 2303); details: HepG2 viability, 24-48 h, at 10 µM, hits give high values;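 further: 0% = DMSO wells and 100% = digitonin-killed cells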
Calls of active or inactive are those of the source.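 How the source made its calls: active means inhibition above 50%; inactive means the rest.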
Measured property: inhibition

Task: Return inhibition (reported value) for this compound: COC(=O)C1=C(C)NC2=C(C(=O)CC(c3ccc(OC)c(OC)c3)C2)C1c1cccc(O)c1 (centres undefined)
Output: 2% (inactive)

Task: Please supply the value of reported inhibition for the item "COc1ccc(NC(=O)CCNc2cc(C)nc(NCCOc3ccccc3)n2)cc1"
Output: 0% (inactive)

Task: Consider the compound "CN1CCN(c2cc3c(Nc4ccc5c(cnn5Cc5ccccc5)c4)ncnc3cn2)CC1" and give its recorded inhibition.
Output: 9% (inactive)

Now let's try a different one.
Task: Please report the measured inhibition for "N#CCCN1CCN(Cc2cccc(-c3ccc(-c4nc5ccc(C(F)(F)F)cc5[nH]4)cc3)c2)CC1"
Output: 23% (inactive)

* * *

target: L-lactate dehydrogenase (Plasmodium falciparum (isolate CDC / Honduras)) (UniProt Q27743); assay: PfLDH activity inhibition – cell lysate, 3D7 strain, counter-screen for P. falciparum growth inhibition project (AID 2304);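 further: 0% = vehicle and 100% = reference inhibitor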; conditions: P. falciparum 3D7 crude extract, LDH APAD/NBT absorbance; at 2 µM; hits give high values
Sequence (Q27743 whole entry, looked up): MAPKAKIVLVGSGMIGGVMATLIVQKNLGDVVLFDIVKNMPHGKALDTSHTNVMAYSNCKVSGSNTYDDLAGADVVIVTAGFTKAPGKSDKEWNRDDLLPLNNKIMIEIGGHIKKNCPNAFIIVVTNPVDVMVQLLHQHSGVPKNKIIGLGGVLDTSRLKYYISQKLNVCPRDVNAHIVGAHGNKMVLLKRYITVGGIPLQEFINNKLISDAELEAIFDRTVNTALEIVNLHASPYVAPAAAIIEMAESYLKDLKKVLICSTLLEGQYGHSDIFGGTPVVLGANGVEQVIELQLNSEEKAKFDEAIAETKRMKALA
Measured property: inhibition (%)
I only need the number, in %, no unit after it.

Task: Using the record for "CNC(=O)c1cnc(Nc2ccc(N3CCN(C)CC3)cc2)nc1Nc1cccc(OC)c1" , state its measured inhibition.
Output: 5

Pending compound:
Task: Check the records and state inhibition for "COc1ccccc1/C=C/C(=O)N(C)C1CCN(CCCCCNC(=O)/C=C/c2ccc(Cl)c(Cl)c2)CC1"
Output: -3

* * *

assay: inhibition of 3D7 malaria parasite growth – strain 3D7 (AID 2306);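 further: 0% = DMSO wells and 100% = chloroquine plus artemisinin control wells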; settings: P. falciparum 3D7 erythrocytic growth, LDH absorbance, 72 h; at 2 µM; hits give high values
The source made the active and inactive calls. How the calls were made is not given here.
Measured property: growth inhibition

Use these answered entries as a reference point.
Task: Tell us which growth inhibition value is on record for "COc1ccc(NC(=O)/C=C/c2cc(F)cc(C(F)(F)F)c2)cc1OCCN(C(C)C)C(C)C"
Output: 97% (active)

Task: Supply recorded growth inhibition for "CN1CCN(c2cc(-c3cccc(C(F)(F)F)c3)nc(-c3ccncc3)n2)CC1" here.
Output: 102% (active)

Task: Identify the reported growth inhibition for the following entry. "COC(=O)c1ccc(NC(=O)c2ccc(CCN3CCC(c4nc(COCC(F)(F)F)c(-c5ccc(F)cc5)o4)CC3)cc2)cc1"
Output: 89% (active)

Task: Read off the recorded growth inhibition for "Cc1ccc(O)cc1Nc1ccnc2cc(-c3csc(CN4CCN(C)CC4)n3)ccc12"
Output: 100% (active)

Others:
Task: Give the measured growth inhibition for "COc1ccc(-c2nc(NC(=O)CS(=O)(=O)c3ccc(C)cc3)sc2C)cc1"
Output: 101% (active)

* * *

assay: antimalarial activity against Dd2 strain (AID 2302);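 further: 0% = DMSO untreated growth and 100% = chloroquine plus artemisinin killed control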; settings: P. falciparum Dd2 in RBCs, LDH growth readout, 72 h; at 2 µM
Active and inactive are the calls of the source.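 Rule for the calls: active = growth inhibition above 50% at the single 2 µM test dose, taken to imply half-maximal potency below 2 µM; inactive = the rest.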
Output constraint: value belongs to class 1 for active, class 0 for inactive

The examples below pair each entry with its known result.
Task: Write down the call the test reported for this compound. Item: "CCCc1cc(=O)[nH]c(-n2nc(C)cc2NC(=O)CC(c2ccccc2)c2ccccc2)n1"
Output: class 1

Task: Which outcome did this test record for the compound "Fc1cccc(COc2ccc(Nc3ncnc4sc(C#C[C@H]5CC[C@H](CN6CCOCC6)N5)cc34)cc2Cl)c1" ?
Output: class 0

Task: I'd appreciate the recorded outcome for "CCc1nc2nc(C)cc(Nc3ccc(F)c(Cl)c3)n2n1" from this test.
Output: class 1

Pending compound:
Task: I'd appreciate the recorded outcome for O=C(Nc1ccc2c(c1)OCO2)NC1CCN(c2ccnc(Nc3ccc(F)cc3)n2)C1 (stereo not drawn) from this test.
Output: class 1

* * *

experiment: inhibition of 3D7 malaria parasite growth – strain 3D7 (AID 2306);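 further: 0% = DMSO wells and 100% = chloroquine plus artemisinin control wells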; conditions: P. falciparum 3D7 erythrocytic growth, LDH absorbance, 72 h; at 2 µM; hits give high values
Listed below: growth inhibition values for each entry.
All answers are understood in %, so give the number only.

Task: Determine its reported growth inhibition: CC(Oc1ccc(Cl)cc1)C(=O)NCCC1CCN(CCCCCNC(=O)/C=C/c2ccc(Cl)c(Cl)c2)CC1 (centres undefined)
Output: 89

Task: Annotate the molecule "COc1cc(C(=O)NCCCN2CCN(c3cccc(Cl)c3)CC2)ccc1-c1nc2cc(Cl)c(F)cc2[nH]1" with its measured growth inhibition.
Output: 100

Task: Quick one: give measured growth inhibition for "CCn1c(Sc2ccc([N+](=O)[O-])c(C#N)c2)nnc1-c1cccc(Cl)c1"
Output: 89

Let us examine a further case.
Task: Determine from records and report growth inhibition for CC(C)(C)c1ccc(CN2CCC(CNC(=O)c3cc(-c4cccc(Cl)c4)cs3)C2)cc1 (centres undefined)
Output: 101

* * *

experiment: antimalarial activity against Dd2 strain (AID 2302);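 further: 0% = DMSO untreated growth and 100% = chloroquine plus artemisinin killed control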; conditions: P. falciparum Dd2 in RBCs, LDH growth readout, 72 h; at 2 µM; hits give high values
Decision: growth inhibition compared against 40%; not below it gives True, below it gives False.

Task: Is the recorded value of growth inhibition equal to or greater than 40% for this molecule? "Clc1cc(Nc2ncnc3sc(C#Cc4ncc[nH]4)cc23)ccc1OCc1ccccn1"
Output: False

Task: Would you say "CC(C)Cc1cn(-c2nc(-c3nc4ccccc4[nH]3)cs2)c2cc(Cl)ccc12" shows growth inhibition at minimum 40%?
Output: True

* * *

The entries below are paired with their reported inhibition.
assay: HepG2 cytotoxicity, primary screen, cytotoxicity control for P. falciparum antimalarial project, cell-based, ATP luminescence (AID 2303); settings: HepG2 viability, 24-48 h, at 10 µM, hits give high values;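 further: 0% = DMSO wells and 100% = digitonin-killed cells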
Activity calls are given as the source filed them.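 How the source made its calls: active means inhibition above 50%; inactive means the rest.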

Record excerpt, results attached:
Task: Fill in reported inhibition for this entry: "COc1ccc(CC(=O)Nc2ccc(-c3cccc(-c4nc5c(C)cccc5[nH]4)c3)cc2)cc1O"
Output: 6% (inactive)

Task: Determine its reported inhibition: OC(CNCc1cccc(Oc2ccc(Cl)cc2)c1)c1cc(C(F)(F)F)cc(C(F)(F)F)c1 (stereo not given)
Output: -4% (inactive)

Continuing:
Task: Identify inhibition associated with the compound "CCCCCn1c(Sc2ccc(C#N)c([N+](=O)[O-])c2)nnc1-c1cc(OC)cc(OC)c1"
Output: 17% (inactive)

Task: State its inhibition for this compound: "COc1cc(C(C)C)ccc1C1CCN(CCCCNC(=O)c2ccc(NC(=O)c3ccc(Cl)cc3)cc2)CC1"
Output: 100% (active)

Task: Answer with the recorded inhibition for the compound listed here: "Nc1nccc(-c2ccc3c(-c4cccc(F)c4)cnc(N)c3c2)n1"
Output: 41% (inactive)

Task: Assign inhibition to the following record: "Cc1ccc(CN2CCCN(Cc3ccc(C(=O)Nc4ccc(Cl)cc4)cc3)CC2)s1"
Output: 53% (active)

Task: Give a short answer stating reported inhibition for "CNCc1ccc(CN(C)c2nc(N)c3cc(OC)c(OC)cc3n2)cc1" .
Output: 12% (inactive)

Task: # return recorded inhibition for entry "COc1cc(Cc2cnc(N)nc2N)ccc1OCc1ccc(NC(C)=O)cc1"
Output: 9% (inactive)

Task: Please report the measured inhibition for "Cc1cc(N(C)C)nc(Nc2ccc(NC(=O)C3CCCCC3)cc2)n1"
Output: 3% (inactive)

Task: Note down inhibition recorded for "CN=C(NO)NCCN(C)C"
Output: -1% (inactive)

* * *

assay: antimalarial activity against Dd2 strain (AID 2302);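 further: 0% = DMSO untreated growth and 100% = chloroquine plus artemisinin killed control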; conditions: P. falciparum Dd2 in RBCs, LDH growth readout, 72 h; at 2 µM; hits give high values
growth inhibition values by entry
Write the number in % without appending the unit.

Here's what some known entries look like.
Task: Write down growth inhibition measured for item "CCCCNc1nc(NCCCC)c2c(C)c(Cc3ccccc3)c(NCCCC)nc2n1"
Output: 84

Task: Identify growth inhibition associated with the compound "Fc1cc(Cl)ccc1Nc1ccnc2cc(-c3scnc3CNCCN3CCOCC3)ccc12"
Output: 84

Task: Give reported growth inhibition value for "O=C(Nc1ccc(-c2ccc(-c3nc4ccccc4[nH]3)cc2)cc1)Nc1ccc(Cl)c(Cl)c1"
Output: 100

Task: Please give the documented growth inhibition of "COc1cccc2c1CCN(CCN1CCC(CNC(=O)c3ccc(-c4ccc(C#N)cc4)cc3)CC1)C2"
Output: 98

Task: Give growth inhibition for "CS(=O)(=O)c1ccc(CCNCc2ccc(-c3ccc(CN(C(=O)c4ccco4)C4CCN(Cc5ccccc5)CC4)cc3)nc2)cc1"
Output: 38

Continuing:
Task: State, in one line, measured growth inhibition of "O=C(Nc1cc(Cl)ccc1Cl)N[C@H]1CCN(CCCCCNC(=O)[C@@H]2C[C@H]2c2ccc(Cl)c(Cl)c2)C1"
Output: 1

Task: Determine its reported growth inhibition: "COc1ccc(C2CCN(CCCCNC(=O)c3ccc(NC(=O)c4ccc(Cl)cc4)cc3)CC2)c(OC)c1"
Output: 95

Task: State its growth inhibition: CCC(C)NC(=O)CN1CN(c2ccccc2)C2(CCN(C(=O)c3ccc4ccccc4c3)CC2)C1=O (stereo unspecified)
Output: 78

Task: Give recorded growth inhibition. "O=c1cc(NCCCNCc2cccc(Oc3ccccc3)c2)[nH]c2ccccc12"
Output: 67

Task: State its growth inhibition for this compound: "Cc1[nH]c(C)c(-c2ccc(-c3ccccc3)nc2)c(=O)c1Br"
Output: 95

Task: Identify measured growth inhibition associated with "Cn1cncc1-c1ccc2ncnc(Nc3ccc4c(cnn4Cc4ccccc4)c3)c2c1"
Output: 99

Task: Write down growth inhibition measured for item "Fc1ccc2nc(-c3ccc(-c4ccc(CNCCc5ccncc5)cc4)cc3)[nH]c2c1"
Output: 97

Task: For the compound CCc1c(C(=O)NC2CCC(N3CCC(c4ccccc4C)CC3)CC2)[nH]c2ccc(OC)cc12 (stereo unspecified) , give its measured growth inhibition value.
Output: 100

Task: Give the reported value of growth inhibition for this record: Cc1ccc(C2(C)CC(C)(C)N(C(=O)COc3ccc4ccccc4c3)c3ccccc32)cc1 (stereo unspecified)
Output: 98

Task: Identify measured growth inhibition corresponding to "CCOc1cc(C(=O)NCCN(CC)c2cccc(C)c2)ccc1-c1nc2ccc(Cl)cc2[nH]1"
Output: 80

Task: Please supply the value of reported growth inhibition for the item "Fc1ccc2[nH]c3c(NCCCN4CCOCC4)ncnc3c2c1"
Output: 2

Task: Kindly indicate its recorded growth inhibition. Item: "CCc1cn2c3c(cc(C(=O)N[C@@H](Cc4ccccc4)[C@H](O)CNCc4ccccc4)cc13)N(C)S(=O)(=O)CC2"
Output: 99

Task: Using known records, supply growth inhibition for COc1ccccc1C1CCN(C2CCC(NC(=O)/C=C/c3ccc(C(F)(F)F)cc3F)CC2)CC1 (stereo unspecified)
Output: 2

Task: Provide one value: measured growth inhibition of "Cc1ccc2nc(-c3ccccc3)cc(NN=Cc3cccnc3)c2c1"
Output: 39

Task: Supply reported growth inhibition belonging to this compound: "COc1ccc2nc3cc(Cl)ccc3c(NCCCO)c2c1"
Output: 100

Task: // Input: c1cc(CNCC2CCCO2)cc(-c2cccc(-c3nc4ccccc4[nH]3)c2)c1 (stereo unspecified) . Output its growth inhibition only.
Output: 7
